Data origin, for the record: paper PMC6541264

experiment: MTT assay, cell viability of L-02 cells; assay type: cell-based, human; conditions: human, L-02 (L02) normal hepatic cells; L-02, MTT, 24 h, 15 μmol/L; read-out: cells viabilityrate
measured attribute: viability at 24 h, 15 μmol/L (%)
Please state the figure in %; there is no need to write the unit.

Input: Fill blank: measured viability at 24 h, 15 μmol/L of the molecule O=c1c2ccccc2nc2n1CCc1c-2[nH]c2ccccc12 is ____.
Output: 80.5

---

assay: MTT assay, cell viability of L-02 cells; type: cell-based, human; conditions: human, L-02 (L02) normal hepatic cells; L-02, MTT, 24 h, 1000 μmol/L; read-out: cells viabilityrate
measured attribute: viability at 24 h, 1000 μmol/L (%)
Please state the figure in %; there is no need to write the unit.

Input: Fill blank: measured viability at 24 h, 1000 μmol/L of the compound O=C(O)[C@H]1O[C@@H](Oc2cc3oc(-c4ccccc4)cc(=O)c3c(O)c2O)[C@H](O)[C@@H](O)[C@@H]1O is ____.
Output: 154

---

assay: MTT assay, cell viability of L-02 cells; format: cell-based, human; conditions: human, L-02 (L02) normal hepatic cells; L-02, MTT, 24 h, 2000 μmol/L; read-out: cells viabilityrate
measured attribute: viability at 24 h, 2000 μmol/L (%)
Please state the figure in %; there is no need to write the unit.

Input: Fill blank: measured viability at 24 h, 2000 μmol/L of the compound O=C(O)[C@H]1O[C@@H](Oc2cc3oc(-c4ccccc4)cc(=O)c3c(O)c2O)[C@H](O)[C@@H](O)[C@@H]1O is ____.
Output: 98.6

---

Assay: MTT assay, cell viability of L-02 cells
Format: cell-based, human
Conditions: human, L-02 (L02) normal hepatic cells; L-02, MTT, 24 h, 80 μmol/L; read-out: cells viabilityrate
Protocol: The normal hepatic cell (L02) cell lines were obtained from the National Infrastructure of Cell Line Resources (Chinese Academy of Medical Sciences, Beijing, China), and maintained in Dulbecco’s modified Eagle’s medium (DMEM, 10-013-CVR) supplemented with 10% fetal bovine serum (FBS, Hyclone), 1% penicillin and streptomycin (PS, 100 IU/ml penicillin, 100 μg/ml streptomycin, Mediatech, 30-002-CI). All cells were incubated in a humidified atmosphere at 37°C with 5% CO2. […]
measured attribute: viability at 24 h, 80 μmol/L (%)
Please state the figure in %; there is no need to write the unit.

Input: Fill blank: measured viability at 24 h, 80 μmol/L of the compound COc1ccc2cc1Oc1ccc(cc1)C[C@H]1c3cc(c(OC)cc3CCN1C)Oc1c(OC)c(OC)cc3c1[C@H](C2)N(C)CC3 is ____.
Output: 83.3

---

test: MTT assay, cell viability of L-02 cells; assay type: cell-based, human; details: human, L-02 (L02) normal hepatic cells; L-02, MTT, 24 h, 60 μmol/L; read-out: cells viabilityrate
measured attribute: viability at 24 h, 60 μmol/L (%)
Please state the figure in %; there is no need to write the unit.

Input: Fill blank: measured viability at 24 h, 60 μmol/L of the molecule COc1ccc2cc1Oc1ccc(cc1)C[C@H]1c3cc(c(OC)cc3CCN1C)Oc1c(OC)c(OC)cc3c1[C@H](C2)N(C)CC3 is ____.
Output: 91.8

---

Test: MTT assay, cell viability of L-02 cells
Type: cell-based, human
Details: human, L-02 (L02) normal hepatic cells; L-02, MTT, 24 h, 40 μmol/L; read-out: cells viabilityrate
Description: The normal hepatic cell (L02) cell lines were obtained from the National Infrastructure of Cell Line Resources (Chinese Academy of Medical Sciences, Beijing, China), and maintained in Dulbecco’s modified Eagle’s medium (DMEM, 10-013-CVR) supplemented with 10% fetal bovine serum (FBS, Hyclone), 1% penicillin and streptomycin (PS, 100 IU/ml penicillin, 100 μg/ml streptomycin, Mediatech, 30-002-CI). All cells were incubated in a humidified atmosphere at 37°C with 5% CO2. […]
measured attribute: viability at 24 h, 40 μmol/L (%)
Please state the figure in %; there is no need to write the unit.

Input: Fill blank: measured viability at 24 h, 40 μmol/L of the compound COc1ccc2cc1Oc1ccc(cc1)C[C@H]1c3cc(c(OC)cc3CCN1C)Oc1c(OC)c(OC)cc3c1[C@H](C2)N(C)CC3 is ____.
Output: 101
